This collection of values is drawn from the supplement of paper PMC9694430.

tested on: LOC_OS05G16824-cb004; experiment: thermal shift delta Tm vs DMSO control; higher = stronger stabilization (binding); conditions: 12.5 µM; protein concentration 2 µM;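 note: purified Escherichia coli-expressed rice kinase domain construct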
ASSAY_ENDPOINT: thermal shift delta Tm (°C)
Answer with a number only, understood to be in °C.

Param item: C#Cc1cccc(Nc2ncnc3cc(OC)c(OCCCCCCC(=O)NO)cc23)c1 ; param system: LOC_OS05G16824-cb004; output thermal shift delta Tm: -6.18

Let me check: O=C1NC(=O)/C(=C/c2ccc3c(c2)OC(F)(F)O3)S1 , system LOC_OS05G16824-cb004, measured thermal shift delta Tm is -1.22

Form: item N#CC(=C(/N)Sc1ccccc1N)/C(C#N)=C(\N)Sc1ccccc1N ; test system LOC_OS05G16824-cb004; thermal shift delta Tm: -1.67

Entry CC(C)(C)c1nc(-c2cccc(NS(=O)(=O)c3c(F)cccc3F)c2F)c(-c2ccnc(N)n2)s1 : thermal shift delta Tm on LOC_OS05G16824-cb004 = 8.29

Result for Nc1ncnc2n[nH]c(Nc3ccc(F)cc3)c12 , tested on LOC_OS05G16824-cb004, thermal shift delta Tm: 1.59

###

system: LOC_OS05G43570-cb004; assay: thermal shift delta Tm vs DMSO control; higher = stronger stabilization (binding); conditions: 12.5 µM; protein concentration 2 µM
Counter-ions that a name gives are not always drawn.
ASSAY_ENDPOINT: thermal shift delta Tm (°C)
Express it in °C; write the number only.

Record CN(C[C@@H]1COCCO1)S(=O)(=O)Nc1ccc2ccc3ncc(-c4cnn(C)c4)cc3c(=O)c2c1 , field thermal shift delta Tm: 0.41

Reported thermal shift delta Tm of Cc1ccc(CNc2ncnc3ccc(-c4ccc(CO)o4)cc23)o1 : 0.04

compound CN1CCN(c2ccc(C(=O)Nc3n[nH]c4ccc(Cc5cc(F)cc(F)c5)cc34)c(NC3CCOCC3)c2)CC1 [Entrectinib (RXDX-101)] , thermal shift delta Tm observed: 0.47

Entry O=C1NC(=O)/C(=C/c2cccc(C(F)(F)F)c2)S1 — recorded thermal shift delta Tm = 0.27

The compound listed as COc1cc(Nc2ncc(F)c(Nc3ccc4c(n3)N(COP(=O)(O)O)C(=O)C(C)(C)O4)n2)cc(OC)c1OC [R788 (Fostamatinib) Disodium] shows thermal shift delta Tm equal to 0.56

For reference, reported thermal shift delta Tm for COc1cc2/c(=N/c3ccc(Br)cc3F)nc[nH]c2cc1OCC1CCN(C)CC1 [Vandetanib (ZD6474)] stands at -0.25

In plain terms, C=CCc1ccc(O)c(-c2ccc(O)c(CC=C)c2)c1 has a documented thermal shift delta Tm of 0.62

The measured thermal shift delta Tm associated with O=C(NOCC1CC1)c1ccc(F)c(F)c1Nc1ccc(I)cc1Cl reads 1.06

Just so you know, measured thermal shift delta Tm for O=C(Nc1cc(C(F)(F)F)cc(C(F)(F)F)c1)c1cc(Cl)ccc1O came out at 0.76

Sample CNC(=O)c1cc(Oc2ccc(NC(=O)Nc3ccc(Cl)c(C(F)(F)F)c3)c(F)c2)ccn1 ; thermal shift delta Tm observed: 0.38

Record COc1ccc(-c2cc3c(C)nc(N)nc3n([C@H]3CC[C@H](OCCO)CC3)c2=O)cn1 . Reported thermal shift delta Tm: 0.65

The recorded thermal shift delta Tm for entry COc1cc2ncnc(Nc3cccc(Cl)c3F)c2cc1OC(=O)N1CCN(C)C[C@H]1C equals 0.72

// COc1cc(N2CCN(C)CC2)ccc1Nc1nccc(-c2cn(C)c3cnccc23)n1 : thermal shift delta Tm value = 0.32

thermal shift delta Tm in this record for N=C(N)NC(=N)NCCc1ccccc1 [Phenformin HCl] : 0.27

Data point: CCc1cc(Nc2nccc(-c3c(-c4ccc(OC)c(C(=O)Nc5c(F)cccc5F)c4)nc4ccccn34)n2)c(OC)cc1N1CCC(N2CCN(S(C)(=O)=O)CC2)CC1 ; thermal shift delta Tm = 0.31

Briefly, thermal shift delta Tm measured for CC1(C)C=Cc2c(ccc3c2OC[C@@H](c2ccc(O)cc2O)C3)O1 : 0.51

Looking up Cc1nc(Nc2n[nH]c3c2CN(C(=O)N[C@H](CN(C)C)c2ccccc2)C3(C)C)c2sccc2n1 , I found its thermal shift delta Tm recorded as 1.95

Kindly note the recorded thermal shift delta Tm for CC(C)(C)NC(=O)c1cncn1C1CCN(c2ccc(-c3nnc(C(F)(F)F)o3)cn2)CC1 , which is -0.06

###

system: LOC_OS01G57100-cb003; test: thermal shift delta Tm vs DMSO control; higher = stronger stabilization (binding); conditions: 12.5 µM; protein concentration 2 µM
Decision: thermal shift delta Tm compared against 1 °C; not below it gives Yes, below it gives No.

(Q) Evaluate CC1=C(C(=O)Nc2cc3cn[nH]c3cc2F)C(c2ccc(C(F)(F)F)cc2)CC(=O)N1 (centres undefined) : thermal shift delta Tm at minimum 1 °C?
(A) Yes

(Q) Quick check: does COc1ccc(COc2cc3oc(=O)c4cc(C(C)O)ccc4c3cc2OC)cc1 (centres undefined) have thermal shift delta Tm greater than or equal to 1 °C?
(A) Yes

(Q) Check if thermal shift delta Tm >= 1 °C (inclusive). Item: COc1cc2nccc(Oc3ccc(NC(=O)C4(C(=O)Nc5ccc(F)cc5)CC4)cc3)c2cc1OC [Cabozantinib malate (XL184)]
(A) Yes

(Q) I'd appreciate it if you could say whether CC(C)(C)c1nc(-c2ccc(NC(=O)Nc3cccc(C(F)(F)F)c3)c3ccccc23)c2c(N)nccn12 has thermal shift delta Tm at least equal to 1 °C.
(A) No

(Q) Does the reported thermal shift delta Tm for Cc1cc(Nc2cc(N3CCN(C)CC3)nc(/C=C/c3ccccc3)n2)n[nH]1 fall at or above the 1 °C mark?
(A) No

(Q) Please tell me: is the molecule CCS(=O)(=O)N1CCN(c2ccc(Nc3ncc(C(N)=O)c(NC4CC4)n3)cc2)CC1 at or over 1 °C in terms of thermal shift delta Tm?
(A) No

(Q) Does C[C@@H](Oc1cc(-c2cnn(C3CCNCC3)c2)cnc1N)c1c(Cl)ccc(F)c1Cl have a reported thermal shift delta Tm of at least 1 °C?
(A) Yes

(Q) Decide: thermal shift delta Tm of N#CC1(c2ccc(NC(=O)c3cccnc3NCc3ccncc3)cc2)CCCC1 >= 1 °C?
(A) Yes

(Q) Please check the record Cc1cccc(Nc2nc(NC3CCCCC3N)ncc2C(N)=O)c1 (centres undefined) and state if its thermal shift delta Tm is at or above 1 °C.
(A) Yes

###

Could you please report measured thermal shift delta Tm for the items listed next?
system: LOC_OS01G57100-cb003; test: thermal shift delta Tm vs DMSO control; higher = stronger stabilization (binding); settings: 12.5 µM; protein concentration 2 µM
Use °C as the unit, but write only the number.

Recorded thermal shift delta Tm (molecule CCn1c(=O)c(-c2ccc(Cl)cc2Cl)cc2cnc(Nc3ccc(N4CCNCC4)c(F)c3)nc21 ): 2.04

The value of thermal shift delta Tm measured for the molecule C=CC(=O)N1CCN(CCCn2c(=O)c(-c3c(Cl)c(OC)cc(OC)c3Cl)cc3cnc(NC)nc32)CC1 turned out to be 1.48

Recorded thermal shift delta Tm (molecule CCCS(=O)(=O)Nc1ccc(F)c(C(=O)c2c[nH]c3ncc(Cl)cc23)c1F ): 0.54

molecule Fc1ccc2[nH]ccc2c1-c1nc(N2CCOCC2)c2sc(CN3CCN(CC4CC4)CC3)cc2n1 , thermal shift delta Tm observed: 1.16

In plain terms, COc1cc2ncnc(Oc3ccc(CC(=O)Nc4cnn(C(C)C)c4)cc3)c2cc1OC has a documented thermal shift delta Tm of 0.71

For CN1CC[C@H](c2c(O)cc(O)c3c(=O)cc(-c4ccccc4Cl)oc23)[C@H](O)C1 [Flavopiridol (Alvocidib)] the molecule record lists thermal shift delta Tm as 0.96

The value of thermal shift delta Tm measured for the molecule CCn1c(=O)c(-c2ccc(-c3cncs3)cc2Cl)cc2cnc(Nc3ccc(N4CCN(C)CC4)cc3)nc21 turned out to be 1.89

Entry C#Cc1cccc(Nc2ncnc3cc(OCCOC)c(OCCO)cc23)c1 — recorded thermal shift delta Tm = 0.15

// O=C(c1cccc(Cl)c1F)N1CCN(Cc2cccc(Nc3nccs3)n2)CC1 : thermal shift delta Tm value = 1.37

###

I'd be grateful if you could share measured thermal shift delta Tm for these entries.
system: LOC_OS03G27990-cb004; experiment: thermal shift delta Tm vs DMSO control; higher = stronger stabilization (binding); settings: 12.5 µM; protein concentration 2 µM
Reply with a number, then the unit it belongs to.

// thermal shift delta Tm lookup, compound = CC(C)(CCCCCC(O)CCCCCC(C)(C)C(=O)O)C(=O)O , result: 0.25 °C

compound Cc1ccc(-n2nc(C(C)(C)C)cc2NC(=O)NCc2cc(F)ccc2Oc2ccc3c(cnn3CCO)c2)cc1 , thermal shift delta Tm observed: 0.31 °C

Form field thermal shift delta Tm, entry COc1cc(OC)c(/C=C/S(=O)(=O)Cc2ccc(OC)c(NCC(=O)O)c2)c(OC)c1 : 0.04 °C

Reported thermal shift delta Tm ( C[C@@H](N)c1ccc(C(=O)Nc2ccnc3[nH]ccc23)cc1 ) = 0.76 °C

Per the records, this compound ( Cc1c(CN2CCN(C(=O)[C@H](C)O)CC2)sc2c(N3CCOCC3)nc(-c3cnc(N)nc3)nc12 ) has thermal shift delta Tm equal to 0.18 °C

Entry CCc1cncnc1N1CCN(Cc2nc3ccc(C(F)(F)F)cc3[nH]2)CC1 , thermal shift delta Tm reported as 0.33 °C

thermal shift delta Tm recorded for this compound, CO[C@H]1C[C@@H]2CC[C@@H](C)[C@@](O)(O2)C(=O)C(=O)N2CCCC[C@H]2C(=O)O[C@H]([C@H](C)C[C@@H]2CC[C@@H](OC(=O)C(C)(CO)CO)[C@H](OC)C2)CC(=O)[C@H](C)/C=C(\C)[C@@H](O)[C@@H](OC)C(=O)[C@H](C)C[C@H](C)/C=C/C=C/C=C/1C , is 0.07 °C
